- TGT: EGFR (Homo sapiens, UniProt P00533)
- Construct: purchased #40321
- Sequence (P00533 25-1210): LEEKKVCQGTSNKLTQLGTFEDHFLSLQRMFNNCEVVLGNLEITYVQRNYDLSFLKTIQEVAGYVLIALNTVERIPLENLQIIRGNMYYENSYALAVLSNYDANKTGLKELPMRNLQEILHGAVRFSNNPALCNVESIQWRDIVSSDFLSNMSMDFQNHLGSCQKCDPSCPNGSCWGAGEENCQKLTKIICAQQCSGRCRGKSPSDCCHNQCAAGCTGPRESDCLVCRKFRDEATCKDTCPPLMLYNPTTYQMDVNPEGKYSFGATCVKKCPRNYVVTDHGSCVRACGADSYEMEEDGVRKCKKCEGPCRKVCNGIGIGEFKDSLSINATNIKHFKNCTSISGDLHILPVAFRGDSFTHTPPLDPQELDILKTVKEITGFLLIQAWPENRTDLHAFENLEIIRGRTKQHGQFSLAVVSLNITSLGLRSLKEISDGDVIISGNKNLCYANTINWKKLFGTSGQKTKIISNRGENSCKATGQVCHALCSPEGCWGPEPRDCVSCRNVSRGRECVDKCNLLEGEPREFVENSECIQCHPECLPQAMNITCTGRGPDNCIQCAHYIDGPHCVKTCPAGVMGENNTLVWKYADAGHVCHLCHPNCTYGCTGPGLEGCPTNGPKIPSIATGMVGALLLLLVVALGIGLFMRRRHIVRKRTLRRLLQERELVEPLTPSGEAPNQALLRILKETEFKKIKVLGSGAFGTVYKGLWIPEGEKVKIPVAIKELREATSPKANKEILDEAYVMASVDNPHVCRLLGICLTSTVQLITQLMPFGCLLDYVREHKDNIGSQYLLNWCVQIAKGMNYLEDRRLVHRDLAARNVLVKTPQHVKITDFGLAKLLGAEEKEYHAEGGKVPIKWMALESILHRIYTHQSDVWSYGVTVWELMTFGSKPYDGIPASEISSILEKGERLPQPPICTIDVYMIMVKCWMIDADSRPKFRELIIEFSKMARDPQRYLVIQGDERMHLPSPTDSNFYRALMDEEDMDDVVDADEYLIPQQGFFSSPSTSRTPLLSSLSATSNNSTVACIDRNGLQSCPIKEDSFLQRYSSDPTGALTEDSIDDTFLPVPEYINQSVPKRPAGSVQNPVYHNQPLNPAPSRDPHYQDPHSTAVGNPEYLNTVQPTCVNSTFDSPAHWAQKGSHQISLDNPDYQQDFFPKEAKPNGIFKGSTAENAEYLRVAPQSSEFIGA
- MEASUREMENT_DESCRIPTION: EGFR kinase assay kit, Kinase-Glo MAX luminescence
- Assay type: biochemical
- RECORDED_CONDITIONS: 10 µM; one experimental data
inhibition at 10 µM of 90% or higher: yes (1). Under 90%: no (0).

{"TEST_SMILES": "CCOC(=O)CSc1nc2cc(OC)c(OC)cc2c(=O)n1Cc1ccccc1", "ASSIGNED_CATEGORY": "no (0)"}
{"TEST_SMILES": "NNC(=O)CSc1nc2c(F)cc(F)cc2c(=O)n1Cc1ccccc1", "ASSIGNED_CATEGORY": "no (0)"}
{"TEST_SMILES": "CCOC(=O)CSc1nc2ccc(Cl)cc2c(=O)n1Cc1ccccc1", "ASSIGNED_CATEGORY": "no (0)"}
{"TEST_SMILES": "CCOC(=O)CSc1nc2c(F)cc(F)cc2c(=O)n1Cc1ccccc1", "ASSIGNED_CATEGORY": "no (0)"}
{"TEST_SMILES": "NNC(=O)CSc1nc2ccc(F)cc2c(=O)n1Cc1ccccc1", "ASSIGNED_CATEGORY": "yes (1)"}
{"TEST_SMILES": "NNC(=O)CSc1nc2ccc(Cl)cc2c(=O)n1Cc1ccccc1", "ASSIGNED_CATEGORY": "no (0)"}

====

- TGT: CDK2/CyclinA2 (Homo sapiens, UniProt P24941)
- Construct: purchased #79599
- MEASUREMENT_DESCRIPTION: CDK2 Assay Kit, Kinase-Glo MAX luminescence
- Assay type: biochemical
- RECORDED_CONDITIONS: 10 µM; one experimental data

{"COMPOUND": "NNC(=O)CSc1nc2c(F)cc(F)cc2c(=O)n1Cc1ccccc1 [3h]", "inhibition at 10 µM, %": 82.1}
{"COMPOUND": "CCOC(=O)CSc1nc2ccc(Cl)cc2c(=O)n1Cc1ccccc1 [2f]", "inhibition at 10 µM, %": 84}
{"COMPOUND": "CCOC(=O)CSc1nc2c(F)cc(F)cc2c(=O)n1Cc1ccccc1 [2h]", "inhibition at 10 µM, %": 80.2}
{"COMPOUND": "COc1cc2nc(SCC(=O)NN)n(Cc3ccccc3)c(=O)c2cc1OC [3i]", "inhibition at 10 µM, %": 90.4}
{"COMPOUND": "CCOC(=O)CSc1nc2c(C)cc(Cl)cc2c(=O)n1Cc1ccccc1 [2j]", "inhibition at 10 µM, %": 83.7}
{"COMPOUND": "Cc1cc(Cl)cc2c(=O)n(Cc3ccccc3)c(SCC(=O)NN)nc12 [3j]", "inhibition at 10 µM, %": 84}
{"COMPOUND": "NNC(=O)CSc1nc2ccc(F)cc2c(=O)n1Cc1ccccc1 [3g]", "inhibition at 10 µM, %": 89}
{"COMPOUND": "NNC(=O)CSc1nc2ccc(Cl)cc2c(=O)n1Cc1ccccc1 [3f]", "inhibition at 10 µM, %": 81}
{"COMPOUND": "CCOC(=O)CSc1nc2cc(OC)c(OC)cc2c(=O)n1Cc1ccccc1 [2i]", "inhibition at 10 µM, %": 83.7}
{"COMPOUND": "CCOC(=O)CSc1nc2ccc(F)cc2c(=O)n1Cc1ccccc1 [2g]", "inhibition at 10 µM, %": 91.4}
